All figures here come from patent US20120207763A1.

Target: CDK4 (Homo sapiens, UniProt P11802)
Sequence (P11802 whole entry): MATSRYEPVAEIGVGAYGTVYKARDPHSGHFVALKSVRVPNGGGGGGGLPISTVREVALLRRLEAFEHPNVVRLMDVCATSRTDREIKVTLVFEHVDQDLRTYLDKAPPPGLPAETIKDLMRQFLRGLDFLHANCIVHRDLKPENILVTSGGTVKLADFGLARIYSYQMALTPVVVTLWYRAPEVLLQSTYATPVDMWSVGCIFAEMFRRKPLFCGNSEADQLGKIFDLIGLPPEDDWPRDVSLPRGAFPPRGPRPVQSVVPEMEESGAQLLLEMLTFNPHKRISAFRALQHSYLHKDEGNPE
Sequence (P24385 whole entry partner): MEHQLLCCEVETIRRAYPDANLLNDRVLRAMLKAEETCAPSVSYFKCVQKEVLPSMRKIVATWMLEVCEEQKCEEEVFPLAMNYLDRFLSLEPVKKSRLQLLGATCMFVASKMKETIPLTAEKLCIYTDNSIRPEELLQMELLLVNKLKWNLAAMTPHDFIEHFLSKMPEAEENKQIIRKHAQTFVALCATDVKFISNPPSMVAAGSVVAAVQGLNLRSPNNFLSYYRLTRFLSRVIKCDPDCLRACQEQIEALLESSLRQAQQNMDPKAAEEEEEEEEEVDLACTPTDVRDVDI
Experiment: CDK4 HTRF assay
Assay type: biochemical
Settings: CDK4 HTRF/IC50 [umol l − 1], Table E
pIC50: −log10 of the molar value.
Property Name: pIC50

IN: Value lookup for pIC50; key = c1cc(Nc2ncc3ccn(C4CCCC4)c3n2)ncc1N1CCNCC1
OUT: > 6.00

====

Biological target: CDK4 (Homo sapiens, UniProt P11802)
Test: CDK4 HTRF assay
Type: biochemical
Conditions: Table E; read-out: CDK4 HTRF/IC50 [umol l − 1]
Property Name: IC50 (µM)
# output: bare number, implied unit µM

# Structure Notation, IC50 / µM
records = [
    ("Cc1cccnc1Nc1ncc2c(C)cn(C3CCCC3)c2n1", 10),
]

IN: Given CC(=O)c1cn(C2CCCC2)c2nc(Nc3ccc(N4CCNCC4)cc3)ncc12 , state its recorded IC50.
OUT: 10
